System: MS2 coat protein
Assay: apparent KD of MS2 coat protein, switch ON state; designed switch direction (-1 OFF switch, 1 ON switch): -1; higher = weaker reporter binding
Details: FMN input: 0 or 200 uM; Eterna round: R93 (includes R88 designs)
OBSERVABLE: apparent KD of MS2 coat protein (nM)
Give bare numbers, in nM.

>>> obs_value("AGCUAGUCAGGAUAUACGAACAUGUCAGAAGACGUGAAGGGACAUGAGGAUCACCCAUGUAGAAGGGACUAGCA [74%, Web mod - With 1 more G's]")
31.9
>>> obs_value("AAGAAGACAGGAUAUACAAAAUAAAAGAAAAGAAAGAAAGAACAUGAGGAUCACCCAUGUAGAAGGGUCAAGAA [Sekhemkare Amenemhat V]")
69.9
>>> obs_value("AAAAAGUCAGGAUAUGUACGAAAAAAUAAAAAAAUAAAAGUACAGAAGGGACAUGAGGAUCACCCAUGUCAGGG [EX4 393: Minimal 5]")
67.5

Please state, for each entry, its recorded apparent KD of MS2 coat protein.
1. AAGAACGAAGGAUAUACAUGAGGAUCACCCAUGUAAAAGAAAGAAAAGGGAAAGAAAAGUAGAAGGUCGAAGAA [Banenre Merenptah]
2. CUCUAGUUAGGAUAUCCAAGAAAAGAAAAGAAAGAAAAGAAGGAGAAGGAACAUGAGGAUCACCCAUGUAAGAA [EteRNA is fun!]
3. AAAAAACAUGAGGAUCACCCAUGUGAGGAUAUCCAGAAUGGAAUAAAAUAACAAGAAAGGAGAAGGCACAAAAA [Ex 1 May 37]

Found:
1. 21.5
2. 27.8
3. 67.7

Where do the numbers come from? From the supplement of paper PMC9170038.
